experimental.details: Half life in human plasma measured for 5 to 120 mins by LC-MS/MS analysis
Format: ADME, cell-free
measured.endpoint: half-life (h)
Provide only the numeric value, understood in h.

Query: # lookup: half-life of C=C1C(=O)[C@]23[C@H](OC(=O)/C=C/c4ccc(OC)cc4)[C@H]1CC[C@H]2[C@@]12CO[C@]3(O)[C@@H](O)[C@@H]1C(C)(C)CC[C@@H]2O
Result: 2

* * *

Field: IC50. Provide a value for each of the molecules that follow.
Test system: RPMI-8226
experimental.details: Antiproliferative activity against human RPMI8226 cells incubated for 72 hrs by CCK8 cells
Format: functional, cell-based
assay.context: RPMI-8226, 72 h
Provide only the numeric value, understood in µM.

Query: # lookup: IC50 of C=C1C(=O)[C@]23[C@H](OC(=O)c4ccc(C#N)cc4)[C@H]1CC[C@H]2[C@@]12CO[C@]3(O)[C@@H](O)[C@@H]1C(C)(C)CC[C@@H]2O
Result: 35.2

Query: Okay, and C=C1C(=O)[C@]23[C@H](OC(=O)c4ccc(F)c(NC(=O)Cc5ccc(OC)c(OC)c5)c4)[C@H]1CC[C@H]2[C@@]12CO[C@]3(O)[C@@H](O)[C@@H]1C(C)(C)CC[C@@H]2O ?
Result: 19

Query: Okay, and C=C1C(=O)[C@]23[C@H](OC(=O)Cc4cc(OC)c(OC)c(OC)c4)[C@H]1CC[C@H]2[C@@]12CO[C@]3(O)[C@@H](O)[C@@H]1C(C)(C)CC[C@@H]2O ?
Result: 10.9

Query: Okay, and C=C1C(=O)[C@]23[C@H](OC(=O)CCc4ccc(OC)c(OC)c4)[C@H]1CC[C@H]2[C@@]12CO[C@]3(O)[C@@H](O)[C@@H]1C(C)(C)CC[C@@H]2O ?
Result: 10.1

Query: Okay, and C=C1C(=O)[C@]23[C@H](OC(=O)CCc4ccc(OC)cc4)[C@H]1CC[C@H]2[C@@]12CO[C@]3(O)[C@@H](O)[C@@H]1C(C)(C)CC[C@@H]2O ?
Result: 9.42

Query: Okay, and C=C1C(=O)[C@]23[C@H](OC(=O)c4ccc(F)c(NC(=O)c5ccc(OC)c(OCc6ccccc6)c5)c4)[C@H]1CC[C@H]2[C@@]12CO[C@]3(O)[C@@H](O)[C@@H]1C(C)(C)CC[C@@H]2O ?
Result: 6.71

Query: Okay, and C=C1C(=O)[C@]23[C@H](OC(=O)c4ccc(F)c(NC(=O)c5ccc(OC(F)(F)F)cc5)c4)[C@H]1CC[C@H]2[C@@]12CO[C@]3(O)[C@@H](O)[C@@H]1C(C)(C)CC[C@@H]2O ?
Result: 10.5

Query: Okay, and C=C1C(=O)[C@]23[C@H](OC(=O)[C@@H]4OC(c5ccc(OC)cc5)N(C(=O)OC(C)(C)C)[C@H]4c4ccccc4)[C@H]1CC[C@H]2[C@@]12CO[C@]3(O)[C@@H](O)[C@@H]1C(C)(C)CC[C@@H]2O (stereo not given in full) ?
Result: 16.6

Query: Okay, and C=C1C(=O)[C@]23[C@H](OC(=O)c4cccnc4Cl)[C@H]1CC[C@H]2[C@@]12CO[C@]3(O)[C@@H](O)[C@@H]1C(C)(C)CC[C@@H]2O ?
Result: 15.8

* * *

System: RPMI-8226
experimental.details: Antiproliferative activity against human RPMI8226 cells incubated for 72 hrs by CCK8 cells
Assay type: functional, cell-based
assay.context: RPMI-8226, 72 h
Just a reminder that ties go to not satisfied: only IC50 strictly below 9 µM counts as satisfied.

Query: Threshold test, IC50 < 9 µM: C=C1C(=O)[C@]23[C@H](OC(=O)c4ccc(OC)c(OCCBr)c4)[C@H]1CC[C@H]2[C@@]12CO[C@]3(O)[C@@H](O)[C@@H]1C(C)(C)CC[C@@H]2O
Result: satisfied

Query: Okay, and C=C1C(=O)[C@]23[C@H](OC(=O)c4ccc(F)cc4)[C@H]1CC[C@H]2[C@@]12CO[C@]3(O)[C@@H](O)[C@@H]1C(C)(C)CC[C@@H]2O ?
Result: not satisfied

Query: Okay, and C=C1C(=O)[C@]23[C@H](OC(=O)c4cc(F)ccc4F)[C@H]1CC[C@H]2[C@@]12CO[C@]3(O)[C@@H](O)[C@@H]1C(C)(C)CC[C@@H]2O ?
Result: not satisfied

Query: Okay, and C=C1C(=O)[C@]23[C@H](OC(=O)c4ccc(CCl)cc4)[C@H]1CC[C@H]2[C@@]12CO[C@]3(O)[C@@H](O)[C@@H]1C(C)(C)CC[C@@H]2O ?
Result: satisfied

Query: Okay, and C=C1C(=O)[C@]23[C@H](OC(=O)/C=C/c4cc(OC)c(OC)c(OC)c4)[C@H]1CC[C@H]2[C@@]12CO[C@]3(O)[C@@H](O)[C@@H]1C(C)(C)CC[C@@H]2O ?
Result: satisfied

Query: Okay, and C=C1C(=O)[C@]23[C@H](OC(=O)c4ccc(F)c(F)c4F)[C@H]1CC[C@H]2[C@@]12CO[C@]3(O)[C@@H](O)[C@@H]1C(C)(C)CC[C@@H]2O ?
Result: not satisfied

Query: Okay, and C=C1C(=O)[C@]23[C@H](OC(=O)/C=C/c4ccc(OC)cc4)[C@H]1CC[C@H]2[C@@]12CO[C@]3(O)[C@@H](O)[C@@H]1C(C)(C)CC[C@@H]2O ?
Result: satisfied

Query: Okay, and CC(=O)O[C@H]1C(=O)[C@@]2(C)[C@H]([C@H](OC(=O)c3ccccc3)[C@]3(O)C[C@H](OC(=O)[C@H](O)[C@@H](NC(=O)c4ccccc4)c4ccccc4)C(C)=C1C3(C)C)[C@]1(OC(C)=O)CO[C@@H]1C[C@@H]2O ?
Result: satisfied

Query: Okay, and C=C1C(=O)[C@]23[C@H](O)[C@H]1CC[C@H]2[C@@]12CO[C@@]3(O)[C@@H](O)[C@@H]1C(C)(C)CC[C@@H]2OC(C)=O ?
Result: not satisfied
